# experimental-system: human M4 muscarinic acetylcholine receptor (Homo sapiens, UniProt P08173)
# Sequence (P08173 1-479): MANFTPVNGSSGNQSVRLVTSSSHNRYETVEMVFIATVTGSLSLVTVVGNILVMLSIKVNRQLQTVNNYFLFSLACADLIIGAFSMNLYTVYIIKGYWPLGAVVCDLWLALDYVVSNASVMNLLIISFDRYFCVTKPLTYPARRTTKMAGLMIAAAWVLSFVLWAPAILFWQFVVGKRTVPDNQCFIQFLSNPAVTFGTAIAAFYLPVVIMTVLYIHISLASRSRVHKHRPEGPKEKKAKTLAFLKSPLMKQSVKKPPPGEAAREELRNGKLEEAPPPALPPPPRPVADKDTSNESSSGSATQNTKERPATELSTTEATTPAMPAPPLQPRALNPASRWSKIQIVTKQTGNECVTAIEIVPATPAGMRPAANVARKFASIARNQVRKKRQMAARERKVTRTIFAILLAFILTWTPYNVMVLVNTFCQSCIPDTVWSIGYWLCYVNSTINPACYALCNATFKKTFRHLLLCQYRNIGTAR
# assay-explanation: human FLIPR-based M4 PAM assay (calcium mobilization in CHO-K1 cells with human M4 receptor and Gαqi5)
# test-parameters: inflection point of dose response curve, acetylcholine at 20% of maximum response, FLIPR Tetra, read-out: M4 PAM IP
Would you mind telling me the reported EC50 of each entry?
Give just the numeric value; nM need not be written.

Give human M4 muscarinic acetylcholine receptor (Homo sapiens, UniProt P08173) EC50 for "O=C1c2cc(-c3ncccc3-c3cnn(CC4CCCC4)c3)ccc2CN1C1CC1" 58

Requested read-out EC50, target or system human M4 muscarinic acetylcholine receptor (Homo sapiens, UniProt P08173), entry CC1(Cn2cc(-c3ccc(C(N)=O)nc3-c3ccc4c(c3)C(=O)NC4)cn2)CCCC1 [Example 113A] 205

Provide the documented EC50 with human M4 muscarinic acetylcholine receptor (Homo sapiens, UniProt P08173) as the system for "CN1Cc2ccc(-c3nc(C(N)=O)ccc3-c3cnn(CC4CCCC4)c3)cc2C1=O" 278

API: value(readout= EC50, system= human M4 muscarinic acetylcholine receptor (Homo sapiens, UniProt P08173), query= "Cc1ccc(-c2cnn(CC3(C)CCCC3)c2)c(-c2ccc3c(c2)C(=O)N(C)C3=O)n1" ) 29

* * *

Kindly state log10(EC50) for each of the entries shown.
# experimental-system: human M4 muscarinic acetylcholine receptor (Homo sapiens, UniProt P08173)
# assay-explanation: human FLIPR-based M4 PAM assay (calcium mobilization in CHO-K1 cells with human M4 receptor and Gαqi5)
# test-parameters: inflection point of dose response curve, acetylcholine at 20% of maximum response, FLIPR Tetra, read-out: M4 PAM IP
In our notation, the value equals log10 of EC50 in nM.

State its log10(EC50) on human M4 muscarinic acetylcholine receptor (Homo sapiens, UniProt P08173): "CC1(Cn2cc(-c3cccnc3-c3ccc4c(c3)C(=O)N(C3CC3)C4)cn2)CCCC1" 1.51

State its log10(EC50) on human M4 muscarinic acetylcholine receptor (Homo sapiens, UniProt P08173): "CN1Cc2ncc(-c3nc(CF)ccc3-c3cnn(CC4(C)CCCC4)c3)cc2C1=O" 1.54

# query: log10(EC50) | item "N#Cc1ccc(-c2cnn(CC3CCCC3)c2)c(-c2ccc3c(c2)C(=O)N(CC2CC2)C3)n1" | system: human M4 muscarinic acetylcholine receptor (Homo sapiens, UniProt P08173) 0.90

Kindly state the measured log10(EC50) obtained for "CN1Cc2ccc(-c3nc(C#N)c(F)cc3-c3cnn(CC4(C)CCCC4)c3)cc2C1=O" with human M4 muscarinic acetylcholine receptor (Homo sapiens, UniProt P08173). 1.30

Which measured log10(EC50) belongs to "COCCN1Cc2ncc(-c3nc4c(cc3-c3cnn(CC5(C)CCCC5)c3)CCC4)cc2C1=O" , tested on human M4 muscarinic acetylcholine receptor (Homo sapiens, UniProt P08173)? 1.67

Give log10(EC50) (human M4 muscarinic acetylcholine receptor (Homo sapiens, UniProt P08173)) of the following molecule: "Cc1cc(-c2cnn(CC3(C)CCCC3)c2)c(-c2ccc3c(c2)C(=O)N(C)C3)nc1C#N" 1.54

Could you share what log10(EC50) was measured for "Cc1ccc(-c2cnn(CC3(C)CCCC3)c2)c(-c2ccc3c(c2)C(=O)N(C)C3)n1" , tested on human M4 muscarinic acetylcholine receptor (Homo sapiens, UniProt P08173)? 1.04

Query log10(EC50) on human M4 muscarinic acetylcholine receptor (Homo sapiens, UniProt P08173) for "Cc1ccc(-c2cnn(CC3CCCC3)c2F)c(-c2ccc3c(c2)C(=O)N(CC2CC2)C3)n1" 1.08

Which measured log10(EC50) belongs to "CC1(Cn2cc(-c3ccc(F)nc3-c3ccc4c(c3)C(=O)NC4)cn2)CCCC1" , tested on human M4 muscarinic acetylcholine receptor (Homo sapiens, UniProt P08173)? 0.85

Please tell me: log10(EC50) of "Cc1cc(-c2cnn(CC3(C)CCCC3)c2)c(-c2cnc3c(c2)C(=O)N(C)C3)nc1C#N" , system human M4 muscarinic acetylcholine receptor (Homo sapiens, UniProt P08173)? 1.43

Query log10(EC50) on human M4 muscarinic acetylcholine receptor (Homo sapiens, UniProt P08173) for "Cc1ccc(-c2cnn(CC3(C)CCCC3)c2F)c(-c2ccc3c(c2)C(=O)N(CC2CC2)C3)n1" 1.26

Entry "O=C1c2cc(-c3ncccc3-c3cnn(CC4CCCC4)c3)ccc2CN1C1COC1" , system human M4 muscarinic acetylcholine receptor (Homo sapiens, UniProt P08173): what log10(EC50) was measured? 2.38

Lab request: please report log10(EC50) under test system human M4 muscarinic acetylcholine receptor (Homo sapiens, UniProt P08173) for "NC(=O)c1ccc(-c2cnn(CC3CCCC3)c2)c(-c2ccc3c(c2)C(=O)N(C2CC2)C3)n1" 2.47

Entry "CC1(Cn2cc(-c3ccc(C#N)nc3-c3cnc4c(c3)C(=O)N(CC3CC3)C4)cn2)CCCC1" , system human M4 muscarinic acetylcholine receptor (Homo sapiens, UniProt P08173): what log10(EC50) was measured? 1.54

What reported log10(EC50) corresponds to "O=C1c2cc(-c3ncccc3-c3cnn(CC4CCCC4)c3F)ccc2CN1CC1CC1" on human M4 muscarinic acetylcholine receptor (Homo sapiens, UniProt P08173)? 2.15

# get_value(readout= log10(EC50), system= human M4 muscarinic acetylcholine receptor (Homo sapiens, UniProt P08173)) for "NC(=O)c1ccc(-c2cnn(CC3CCCC3)c2)c(-c2ccc3c(c2)C(=O)N(CC2CC2)C3)n1" 1.97

Value wanted: log10(EC50) (human M4 muscarinic acetylcholine receptor (Homo sapiens, UniProt P08173)) of entry "CN1Cc2ccc(-c3nc(F)ccc3-c3cnn(CC4CCCC4)c3)cc2C1=O" 1.45

Quick check: log10(EC50) on human M4 muscarinic acetylcholine receptor (Homo sapiens, UniProt P08173), item "O=C1c2cc(-c3ncccc3-c3cnn(CC4CCCC4)c3)ccc2CN1CCc1ccc(O)cc1" ? 1.46

API: value(readout= log10(EC50), system= human M4 muscarinic acetylcholine receptor (Homo sapiens, UniProt P08173), query= "CN1Cc2ccc(-c3nc(CF)ccc3-c3cnn(CC4(C)CCCC4)c3F)cc2C1=O" ) 1.36

Param readout = log10(EC50); param system = human M4 muscarinic acetylcholine receptor (Homo sapiens, UniProt P08173); param query = CN1C(=O)c2cc(-c3nc(C#N)ccc3-c3cnn(CC4(C)CCCC4)c3)ccc2C1(C)C [Example 60] ; response: value 2.00

# get_value(readout= log10(EC50), system= human M4 muscarinic acetylcholine receptor (Homo sapiens, UniProt P08173)) for "O=C1c2cc(-c3nc(F)ccc3-c3cnn(CC4CCCC4)c3)ccc2CN1C1CC1" 1.53

Requested read-out log10(EC50), target or system human M4 muscarinic acetylcholine receptor (Homo sapiens, UniProt P08173), entry Cc1cc(-c2cnn(CC3(C)CCCC3)c2)c(-c2ccc3c(c2)C(=O)NC3)nc1C#N [Example 112A] 1.56

Return log10(EC50) measured with human M4 muscarinic acetylcholine receptor (Homo sapiens, UniProt P08173) given this molecule: "C#CCN1Cc2ncc(-c3nc4c(cc3-c3cnn(CC5(C)CCCC5)c3)CCC4)cc2C1=O" 1.90

Form: Entry = "C#CCN1Cc2ncc(-c3nc(C#N)ccc3-c3cnn(CC4(C)CCCC4)c3)cc2C1=O" | System = human M4 muscarinic acetylcholine receptor (Homo sapiens, UniProt P08173) | log10(EC50) = ____ 1.41

# query: log10(EC50) | item CC1(Cn2cc(-c3cc4c(nc3-c3cnc5c(c3)C(=O)NC5)[C@@H](F)CC4)cn2)CCCC1 [Example 39B] | system: human M4 muscarinic acetylcholine receptor (Homo sapiens, UniProt P08173) 1.40

Write down the reported log10(EC50) of "CC1(Cn2cc(-c3cc4c(nc3-c3ccc5c(c3)C(=O)N(CCC#N)C5)CCC4)cn2)CCCC1" , test system: human M4 muscarinic acetylcholine receptor (Homo sapiens, UniProt P08173). 1.86

Could you share what log10(EC50) was measured for CC1(Cn2cc(-c3cc4c(nc3-c3cnc5c(c3)C(=O)N(CC3CC3)C5)[C@@H](F)CC4)cn2)CCCC1 (single isomer, unassigned) , tested on human M4 muscarinic acetylcholine receptor (Homo sapiens, UniProt P08173)? 1.88

I'm curious: which log10(EC50) was measured for "CC1(Cn2cc(-c3ccc(Cl)nc3-c3cnc4c(c3)C(=O)N(CC3CC3)C4)cn2)CCCC1" tested on human M4 muscarinic acetylcholine receptor (Homo sapiens, UniProt P08173)? 1.63

Kindly state the measured log10(EC50) obtained for O=C1c2cc(-c3ncccc3-c3cnn(CC4CCCC4)c3)ccc2CN1CC1CCCO1 (stereo not drawn) with human M4 muscarinic acetylcholine receptor (Homo sapiens, UniProt P08173). 1.78

log10(EC50) of "Cc1cc(-c2cnn(CC3(C)CCCC3)c2)c(-c2cnc3c(c2)C(=O)N(C)C3)nc1Cl" on human M4 muscarinic acetylcholine receptor (Homo sapiens, UniProt P08173)? 1.41
